Below, each entry is listed alongside its reported flash point.
Quantity kind: flash point (°C)

[[record]]
compound = "CCCCCCOCCO [2-hexoxyethanol]"
observed_measurement = 91.00

[[record]]
compound = "CCC(C)=O"
observed_measurement = -3.00

[[record]]
compound = "CC(O)COC(C)(C)C (stereo unspecified) [1-[(2-methylpropan-2-yl)oxy]propan-2-ol]"
observed_measurement = 44.00

[[record]]
compound = "CCCCCOC(=O)CC [pentyl propanoate]"
observed_measurement = 41.00

[[record]]
compound = "CC(Cl)=CCCl"
observed_measurement = 27.00

[[record]]
compound = "CC(C)(N)CO"
observed_measurement = 67.00

